# Tested on: MYB mRNA
# experiment_notes: Splicing RT-qPCR assay, MYB canonical (CJ) and alternative (AJ) junction mRNA
# Format: cell-based, human
# conditions: Homo sapiens, 24 h, A673 or K562 cells, 24 hours compound treatment, RT-qPCR; read-out: MYB CJ (IC50, decrease in canonical junction mRNA)
pIC50: −log10 of the molar value. Where a name gives a salt, the structure may show the parent alone.
measure_name: pIC50

See these solved cases before continuing.
{"columns": ["compound", "target_entity", "measure_name", "readout_value"],
 "data": [
  ["CCn1cc2c(N3CCNCC3)ccc(C(=O)Nc3cc(F)c4nc(CO)oc4c3)c2n1", "MYB mRNA", "pIC50", "6.00 to 7.00"],
  ["CCn1cc2c(N3CC4(CCCN4)C3)ccc(C(=O)Nc3cc(F)c4nc(C)cn4c3)c2n1", "MYB mRNA", "pIC50", "5.00 to 6.00"]
]}

The value of pIC50 measured for the compound Cc1cn2cc(NC(=O)c3cc(C)c(N4CCNCC4)c4cn(C)nc34)cc(F)c2n1 turned out to be 5.00 to 6.00

The value of pIC50 measured for the compound CCn1cc2c(N3CCC(C)(NC4CC4)CC3)ccc(C(=O)Nc3cc(F)c4nc(C)cn4c3)c2n1 turned out to be > 7.00

The value of pIC50 measured for the compound CNC1CCN(c2ccc(C(=O)Nc3cc(F)c4nc(C)cn4c3)c3nn(C)cc23)C1 (stereo not drawn) [Compound 298, trifluoroacetic acid salt] turned out to be > 7.00

The value of pIC50 measured for the compound Cc1cn2cc(NC(=O)c3ccc(N4CCNCC4)c4cn(Cc5cn(C)nn5)nc34)cc(F)c2n1 turned out to be 6.00 to 7.00

The value of pIC50 measured for the compound Cc1nc2c(C)cc(NC(=O)c3ccc(N4CCNCC4)c4cn(C)nc34)nc2o1 turned out to be 6.00 to 7.00

The value of pIC50 measured for the compound Cc1cn2cc(NC(=O)c3ccc(N4CCNCC4)c4cn(CCCl)nc34)cc(F)c2n1 turned out to be 6.00 to 7.00

The value of pIC50 measured for the compound Cc1nc2c(F)cc(NC(=O)c3ccc(N4CCNCC4)c4cn(C)nc34)cc2n1C turned out to be < 5.00

Hey, just so you know, these numbers are from patent US20250154169A1.
